Source listed as the supplement of paper PMC10567573.

B1: IFRG15 (parent)
chain: INRADYCPECYPDNPANRSLVLPW

Variants of: B1
protocol: protein stability index of a GFP-peptide fusion (GPS, HEK-293T) (PSI 1-6); higher = more stable;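 also: lentivirally expressed fusions sorted by FACS into six bins by GFP to DsRed ratio, PSI derived from sequencing read proportions per bin multiplied by bin number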
conditions: c terminus: a fixed tail appended
Parameter threshold = 2. Response is fulfilled when protein stability index meets or exceeds it, else not fulfilled.

# count of solved cases: 5
variant-description | assigned-class
P12F | not fulfilled
E9G | not fulfilled
P8C | fulfilled
P12E | fulfilled
A4V | not fulfilled

# input Hi, just wondering whether N2F shows protein stability index of 2 or higher.
# output not fulfilled

# input Dear colleague, could you confirm whether I1P has protein stability index at or above 2?
# output fulfilled
